Would you mind telling me the reported protein stability index of each entry?
# System: Saccharomyces cerevisiae
# method summary: protein stability index of tFT-peptide fusion (C-terminal peptide) (PSI (0-1 scale)); higher = more stable (slower turnover)
# test conditions: genetic background: wild type; temperature: 30 C
Format: numeric value only, no unit, no commentary.

Data request: Fill in reported protein stability index for this entry: QKKNKNKIRTPN
Data returned: 0.688

Data request: Fill in reported protein stability index for this entry: EKKEKTPKPKPR
Data returned: 0.685

Data request: Fill in reported protein stability index for this entry: PLSWVLFSFFHA
Data returned: 0.697

Data request: Fill in reported protein stability index for this entry: DISSSILEIFTS
Data returned: 0.703

Data request: Fill in reported protein stability index for this entry: PHAPSHLPSSLP
Data returned: 0.712

Data request: Fill in reported protein stability index for this entry: LRPASPVGRQTQ
Data returned: 0.691

Data request: Fill in reported protein stability index for this entry: KKKRRFTQEMDK
Data returned: 0.684

###

# Test system: Saccharomyces cerevisiae
# method summary: protein stability index of tFT-peptide fusion in wild type (PSI (0-1 scale)); higher = more stable (slower turnover)
# test conditions: genetic background: wild type
property: protein stability index
Format: numeric value only, no unit, no commentary.

Data request: Fill in reported protein stability index for this entry: LKILRQKVNHQN
Data returned: 0.282

Data request: Fill in reported protein stability index for this entry: ALIQPLPVQFLN
Data returned: 0.101

Data request: Fill in reported protein stability index for this entry: RSLRVLLPLLFR
Data returned: 0.371

Data request: Fill in reported protein stability index for this entry: PDKRNWLIKLLN
Data returned: 0.0714

###

# Test system: Saccharomyces cerevisiae
# method summary: protein stability index of tFT-peptide fusion (C-terminal peptide) (PSI (0-1 scale)); higher = more stable (slower turnover)
# test conditions: genetic background: wild type; temperature: 30 C
Would you mind telling me the reported protein stability index of each entry?
Format: numeric value only, no unit, no commentary.

Data request: Quote protein stability index with test system Saccharomyces cerevisiae for TRAKVQSRGSLS
Data returned: 0.708

Data request: Quote protein stability index with test system Saccharomyces cerevisiae for FQGKRTKQEGVK
Data returned: 0.692

Data request: Quote protein stability index with test system Saccharomyces cerevisiae for FPRHPPPFPRPT
Data returned: 0.681

###

# Test system: Saccharomyces cerevisiae
# method summary: protein stability index of tFT-peptide fusion (C-terminal peptide) (PSI (0-1 scale)); higher = more stable (slower turnover)
# test conditions: genetic background: wild type; temperature: 30 C
property: protein stability index
Format: numeric value only, no unit, no commentary.

Data request: Fill in reported protein stability index for this entry: RYLQAGDYTKVY
Data returned: 0.695

Data request: Fill in reported protein stability index for this entry: VGCLGGCGCGGV
Data returned: 0.716

Data request: Fill in reported protein stability index for this entry: PPPPLPPRPPPP
Data returned: 0.704

Data request: Fill in reported protein stability index for this entry: PPLSAPPPSPSP
Data returned: 0.702

Data request: Fill in reported protein stability index for this entry: SFSLVATESPVT
Data returned: 0.709

Data request: Fill in reported protein stability index for this entry: KRDNKNKDKQKK
Data returned: 0.7

###

# Test system: Saccharomyces cerevisiae
# method summary: protein stability index of tFT-peptide fusion (C-terminal peptide) (PSI (0-1 scale)); higher = more stable (slower turnover)
# test conditions: genetic background: wild type; temperature: 30 C
Would you mind telling me the reported protein stability index of each entry?
Format: numeric value only, no unit, no commentary.

Data request: Fill in reported protein stability index for this entry: VLRRRPNDMRKF
Data returned: 0.694

Data request: Fill in reported protein stability index for this entry: RPGPGHYRSIIL
Data returned: 0.669

Data request: Fill in reported protein stability index for this entry: GGGGGFAPGVTG
Data returned: 0.698

Data request: Fill in reported protein stability index for this entry: FVICGMLVHWMV
Data returned: 0.434

Data request: Fill in reported protein stability index for this entry: TQEKKGKIRGGI
Data returned: 0.685

Data origin, for the record: the supplement of paper PMC10724198
